Attribution: ChEMBL document CHEMBL1201861

test system: UMC-11; assay: cells; assay type: functional, cell-based; settings: Homo sapiens;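 also: growth inhibition of UMC-11 cells, read out with a cell viability assay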
Description: SANGER: Inhibition of human UMC-11 cell growth in a cell viability assay.
pIC50: −log10 of the molar value.
Could you please report measured pIC50 for the items listed next?

# annotated cases, reported pIC50 shown
| compoundStructureString | pIC50 |
| --- | --- |
| C/C(O)=C(\C#N)C(=O)Nc1cc(Br)ccc1Br | < 4.80 |
| C[C@]1(c2nc3c(C(N)=O)cccc3[nH]2)CCCN1 | < 5.30 |
| Cn1cc(/C=C2\C(=O)Nc3cccnc32)c2ccccc21 | < 5.70 |

Dear reader, for each entry below, please note its pIC50.
1. C[C@]12O[C@H](C[C@]1(O)CO)n1c3ccccc3c3c4c(c5c6ccccc6n2c5c31)CNC4=O
2. CCNC(=O)c1noc(-c2cc(C(C)C)c(O)cc2O)c1-c1ccc(CN2CCOCC2)cc1
3. CC(C)=CC[C@@H](O)C1=CC(=O)c2c(O)ccc(O)c2C1=O

Ans.
1. 5.95
2. < 6.59
3. < 4.80

====

tested on: NB7; test: cells; assay type: functional, cell-based; settings: Homo sapiens
Description: SANGER: Inhibition of human NB7 cell growth in a cell viability assay.
pIC50: −log10 of the molar value.
I'd appreciate it if you could supply pIC50 values for the items below.

Answered examples (3):
| compound | pIC50 |
| --- | --- |
| COc1cc(C)c(Sc2cnc(NC(=O)c3ccc(CNC(C)C(C)(C)C)cc3)s2)cc1C(=O)N1CCN(C(C)=O)CC1 (centres undefined) | < 4.99 |
| C[C@]1(c2nc3c(C(N)=O)cccc3[nH]2)CCCN1 [VELIPARIB] | < 5.30 |
| Cn1c(=O)n(-c2ccc(C(C)(C)C#N)cc2)c2c3cc(-c4cnc5ccccc5c4)ccc3ncc21 [DACTOLISIB] | 6.72 |

Now look at this one.
Qu. Sample CCNc1cc(N[C@H]2CC[C@@H](O)CC2)nc(Nc2ccc3c(ccn3Cc3ccccc3)c2)n1 — what was its pIC50?
Ans. < 5.29

====

system: NB69; test: cells; assay type: functional, cell-based; settings: Homo sapiens;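 also: growth inhibition of NB69 cells, determined by a cell viability assay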
Description: SANGER: Inhibition of human NB69 cell growth in a cell viability assay.
measuredParameter: IC50

| compound | result |
| --- | --- |
| O=c1cc(N2CCOCC2)oc2c(-c3cccc4c3sc3ccccc34)cccc12 | > 2000 nM |
| C[C@]12O[C@H](C[C@]1(O)CO)n1c3ccccc3c3c4c(c5c6ccccc6n2c5c31)CNC4=O | 415 nM |
| NC(=O)c1ncn([C@@H]2O[C@H](COP(=O)(O)O)[C@@H](O)[C@H]2O)c1N | 976000 nM |
| COc1cc(Nc2c(C#N)cnc3cc(OCCCN4CCN(C)CC4)c(OC)cc23)c(Cl)cc1Cl | > 2000 nM |
| CCn1c(-c2nonc2N)nc2cnc(Oc3cccc(NC(=O)c4ccc(OCCN5CCOCC5)cc4)c3)cc21 [GSK-269962A] | > 2500 nM |
| Cc1nc(Nc2ncc(C(=O)Nc3c(C)cccc3Cl)s2)cc(N2CCN(CCO)CC2)n1 | 144 nM |

Would you be so kind as to report IC50 for each listed record?
1. CCCS(=O)(=O)Nc1ccc(F)c(C(=O)c2c[nH]c3ncc(Cl)cc23)c1F
2. N#C/C(=C1/Nc2ccccc2S1)c1ccnc(NCCc2cccnc2)n1
3. Cc1ccc(NC(=O)c2cccc(C(C)(C)C#N)c2)cc1Nc1ccc2ncn(C)c(=O)c2c1

Ans.
["> 10000 nM", "> 8000 nM", "191 nM"]
